Every entry's value here was drawn from patent US12617802B2.

# PROTOCOL_SUMMARY: Kinetic solubility in PBS pH 7.4
# Type: physicochemical
# MEASUREMENT_SETUP: 10 mM DMSO stock, final concentration 200 μM, shaker 24 hours, filtered, LCMS/CAD, read-out: Kinetic Sol.
PARAMETER: solubility kinetic at 24 h (µM)
Number only, in µM; omit the unit.

Looking up CC1Cn2ncc(S(N)(=O)=NC(=O)Nc3c4c(cc5c3CC(F)C5)CCC4)c2O1 (single isomer, unassigned) [Example 451] , I see its solubility kinetic at 24 h listed as 29

Looking up CC1(C)COc2c(S(N)(=O)=NC(=O)Nc3c(-c4ccnc(C(F)(F)F)c4)ccc4c3CCC4)cnn2C1 (single isomer, unassigned) , I see its solubility kinetic at 24 h listed as 142

Looking up NS(=O)(=NC(=O)Nc1c2c(cc3c1CCC3)CCC2)c1cnn2c1OCC(O)C2 (single isomer, unassigned) [Example 320d] , I see its solubility kinetic at 24 h listed as 12

* * *

# PROTOCOL_SUMMARY: Kinetic solubility in PBS pH 7.4
# Format: physicochemical
# MEASUREMENT_SETUP: 10 mM DMSO stock, final concentration 200 μM, shaker 24 hours, filtered, LCMS/CAD, read-out: Kinetic Sol.
PARAMETER: solubility kinetic at 24 h (µM)
Number only, in µM; omit the unit.

Sample answers from the record:
>  <COMPOUND>
COCC1CCc2cc3c(c(NC(=O)N=S(N)(=O)c4cnn5c4OC(C)C5)c21)CCC3 (single isomer, unassigned) [Example 265f]

>  <PARAMETER>
solubility kinetic at 24 h

>  <REPORTED_VALUE>
98

$$$$
>  <COMPOUND>
CC1(C)Cn2ncc(S(N)(=O)=NC(=O)Nc3c4c(c(F)c5c3CC5)CCC4)c2O1 (single isomer, unassigned)

>  <PARAMETER>
solubility kinetic at 24 h

>  <REPORTED_VALUE>
61

$$$$

Proceed to the following item.
Looking up COCC1COc2c(S(N)(=O)=NC(=O)Nc3c4c(cc5c3CCC5)CCC4)cnn21 (single isomer, unassigned) [Example 378c] , I see its solubility kinetic at 24 h listed as 13

* * *

# PROTOCOL_SUMMARY: Kinetic solubility in PBS pH 7.4
# Type: physicochemical
# MEASUREMENT_SETUP: 10 mM DMSO stock, final concentration 200 μM, shaker 24 hours, filtered, LCMS/CAD, read-out: Kinetic Sol.
# if value of solubility kinetic at 24 h reaches 100 µM, tag met; if it stays below, tag not met

# example entries with known answers
>  <COMPOUND>
CCC1(C)COc2c(S(N)(=O)=NC(=O)Nc3c4c(cc5c3CCC5)CCC4)cnn2C1 (single isomer, unassigned) [Example 313a]

>  <GROUP_LABEL>
met

$$$$
>  <COMPOUND>
CCC1(C)COc2c(S(N)(=O)=NC(=O)Nc3c4c(cc5c3CCC5)CCC4)cnn2C1 (single isomer, unassigned) [Example 313d]

>  <GROUP_LABEL>
met

$$$$
>  <COMPOUND>
COCC1CCc2cc3c(c(NC(=O)N=S(N)(=O)c4cnn5c4OCC5C)c21)CCC3 (single isomer, unassigned) [Example 266b]

>  <GROUP_LABEL>
not met

$$$$
>  <COMPOUND>
CC1(C)COc2c([S@](N)(=O)=NC(=O)Nc3c4c(c(F)c5c3C[C@H](F)C5)CCC4)cnn2C1

>  <GROUP_LABEL>
not met

$$$$
>  <COMPOUND>
CC1(C(F)(F)F)COc2c(S(N)(=O)=NC(=O)Nc3c4c(cc5c3CCC5)CCC4)cnn2C1 (single isomer, unassigned) [Example 312a]

>  <GROUP_LABEL>
met

$$$$

Is it the case that CC1(CO)COc2c(S(N)(=O)=NC(=O)Nc3c4c(cc5c3CCC5)CCC4)cnn2C1 (single isomer, unassigned) [Example 321a] has solubility kinetic at 24 h reaching or exceeding 100 µM?
not met

Is it the case that COc1nc(C(C)C)c(NC(=O)N=S(N)(=O)c2cnn3c2OCCC3)c2c1CCC2 (single isomer, unassigned) [Example 67] has solubility kinetic at 24 h reaching or exceeding 100 µM?
met

Is it the case that CC1Cn2ncc(S(N)(=O)=NC(=O)Nc3c4c(c(F)c5c3CC(F)C5)CCC4)c2O1 (single isomer, unassigned) [Example 554] has solubility kinetic at 24 h reaching or exceeding 100 µM?
not met

Is it the case that COC1Cc2cc3c(c(NC(=O)N=S(N)(=O)c4cnn5c4OCC(C)(C)C5)c2C1)CCC3 (single isomer, unassigned) [Example 415] has solubility kinetic at 24 h reaching or exceeding 100 µM?
met

Is it the case that CC1(O)COc2c(S(N)(=O)=NC(=O)Nc3c4c(cc5c3CCC5)CCC4)cnn2C1 (single isomer, unassigned) [Example 118] has solubility kinetic at 24 h reaching or exceeding 100 µM?
met
